measurement target: human TAAR1 receptors (Homo sapiens)
Sequence (Q96RJ0 1-339): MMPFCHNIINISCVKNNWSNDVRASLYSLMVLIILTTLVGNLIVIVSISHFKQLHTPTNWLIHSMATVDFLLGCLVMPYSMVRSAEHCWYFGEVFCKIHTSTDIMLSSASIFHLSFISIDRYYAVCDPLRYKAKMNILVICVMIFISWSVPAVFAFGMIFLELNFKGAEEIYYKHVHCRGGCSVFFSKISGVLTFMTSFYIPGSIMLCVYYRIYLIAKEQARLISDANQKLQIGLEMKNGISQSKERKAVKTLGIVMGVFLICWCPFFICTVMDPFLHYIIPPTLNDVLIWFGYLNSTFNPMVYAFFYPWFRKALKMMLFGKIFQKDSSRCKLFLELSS
assay info: TAAR1 Agonism Assay: cAMP HTRF assay for Gs coupled receptor TAAR1 (Euroscreen FAST-0987C)
recorded conditions: CHO-K1 cells expressing human TAAR1, cAMP HTRF
pEC50: −log10 of the molar value.
Overview of recorded pEC50 for various compounds

NCC1Cc2ncccc2Oc2cccc(F)c21 (single isomer, unassigned) [Compound 155]: 5.00 to 6.00
NCC1Cc2cccnc2Oc2ccccc21 (single isomer, unassigned) [Compound 17]: > 6.00
CNCC1Cc2cc(F)ccc2Oc2ccccc21 (single isomer, unassigned) [Compound 98]: > 6.00

With those in mind, consider the next compound.
Problem: Requested field: pEC50. Item: NCC1Cc2ncccc2Oc2cc(Cl)ccc21 (single isomer, unassigned) [Compound 171]
Result: 5.00 to 6.00
